tested on: SW-620; assay: NCI tumour cell line growth inhibition, 48 h
Active and inactive are the calls of the source. No stated cut-off is given here; in the data, active = GI50 up to about 1.1 µM and inactive = higher.
readout.type: GI50

The observed GI50 for C=C(C)C1CC2=C(C(=O)OC)C=C(O2)C(C(=C)C)[C@@H]2OC(=O)/C(=C\C1O)[C@H]2N(C)C (some centres undefined) when tested with SW-620 stands at 7.33 µM (inactive)

Item O=C(N/N=C/c1ccc([N+](=O)[O-])o1)c1ccc(C(=O)N/N=C/c2ccc([N+](=O)[O-])o2)cc1 ; assay system SW-620; GI50 reported as 22.4 µM (inactive)

Entry COC(=O)/C=C\c1ccc2c(c1)CC1(C2)Cc2ccc(/C=C/C(=O)OC)cc2C1 (centres undefined) : GI50 on SW-620 = > 100 µM (inactive)

Short answer on SW-620 for O=S(=O)(c1ccccc1)N1CCN(S(=O)(=O)c2ccccc2)c2ccccc21 , GI50: > 100 µM (inactive)

GET /values?item= Cc1ccc(S(=O)(=O)NC(=O)N[C@@H](Cc2c[nH]cn2)C(=O)O)cc1 &system= SW-620 returns GI50: > 100 µM (inactive)

Measured on SW-620, Cc1cccc2c1c(=O)c1c(O)c3c(cc1n2C)OC(C)(C)C=C3 has a documented GI50 of > 10 µM (inactive)

GI50 value, target or system SW-620, for COC(=O)C(C(=O)C(=O)Nc1c(C)cccc1C(C)(C)C)c1nc2ccc(Cl)cc2nc1O (centres undefined) : > 100 µM (inactive)

Per the reported SW-620 data, COC(=O)Cc1cccc2c(=O)c(S(=O)(=O)NC(=O)Nc3ccc(Cl)cc3)c(-c3ccccc3)oc12 has GI50 of 13.9 µM (inactive)

Measured on SW-620, CN(C)CC1(Cc2ccccc2)CC/C(=C\c2ccccc2)C1=O (centres undefined) has a documented GI50 of 20.8 µM (inactive)

* * *

So I've got a bunch of molecules here, and I need their GI50 values.
tested on: Malme-3M; assay: NCI tumour cell line growth inhibition, 48 h
Activity calls are given as the source filed them. No stated cut-off is given here; in the data, active = GI50 up to about 1.1 µM and inactive = higher. Non-standard residues stand in square brackets, D forms with d. Residues, ends and D or L forms follow the SMILES beside them. *: point of attachment. Ac5c = NC1(C(=O)O)CCCC1; Boc = CC(C)(C)OC(=O)*; tBu = CC(C)(C)*

Recorded GI50 for CN(C)CC1(Cc2ccccc2)CC/C(=C\c2ccccc2)C1=O (stereo not given) on Malme-3M was 44 µM (inactive)

Per the reported Malme-3M data, CC12CCC(C(=O)N3CC=CCC3)(OC1=O)C2(C)C (stereo not given) has GI50 of > 100 µM (inactive)

Measured GI50 (Malme-3M), entry CCCCCCCSCC1OC(n2cnc3c(N)ncnc32)C(O)C1O (stereo not given) : 49.3 µM (inactive)

Summary: CC(OC(C)(C)C)C1NC(=O)C(CCCCNC(=O)OC(C)(C)C)NC(=O)C(Cc2c[nH]c3ccccc23)NC(=O)C(Cc2ccccc2)NC(=O)C2(CCCC2)NC(=O)C(Cc2ccccc2)NC1=O (stereo not given) (cyclo([Ac5c]FWK(Boc)T(tBu)F); configuration not given here) , Malme-3M, GI50 = 27.3 µM (inactive)

# lookup: CN1C/C(=C\c2ccc(C(=O)O)cc2)C(=O)/C(=C/c2ccc(C(=O)O)cc2)C1 on Malme-3M, GI50 = > 100 µM (inactive)

Observed GI50 on Malme-3M, entry CC(CC(=O)O)(CC(=O)O)C(=O)O , equals > 100 µM (inactive)

Form field GI50 for item O=C(CSc1nnc(Cc2ccccc2)o1)Nc1ccc([N+](=O)[O-])cc1 on Malme-3M: > 100 µM (inactive)

With Malme-3M as the test system, CCCC(=O)OCC1OC(n2ccc(N)nc2=O)C(OC(=O)CCC)C1OC(=O)CCC (stereo not given) showed GI50 of > 21.2 µM (inactive)

# lookup: CC(C)c1ccc(C(c2c(O)oc3ccccc3c2=O)c2c(O)oc3ccccc3c2=O)cc1 on Malme-3M, GI50 = 20.6 µM (inactive)

Param item: Cc1ccc(S(=O)(=O)N/N=C/C(=C/c2ccc(Cl)cc2)CC(/C=N/NS(=O)(=O)c2ccc(C)cc2)=C\c2ccc(Cl)cc2)cc1 ; param system: Malme-3M; output GI50: 8.2 µM (inactive)

Noted GI50 for COc1ccc(Oc2nc3cc(N)cc(N)c3nc2-c2ccccc2)cc1 , tested on Malme-3M: 55.1 µM (inactive)

Measured GI50 for this entry CC(=O)Nc1ccc(C(=O)NN2C(=O)C(Cl)C2c2cc(Br)ccc2O)cc1 (stereo not given) on Malme-3M: 5.55 µM (inactive)

// molecule CCOP(=O)(OCC)/C(C#N)=C/c1ccco1 , assay Malme-3M, GI50 value: > 100 µM (inactive)

Reported GI50 (Malme-3M) for entry CSC1=C(SC)SC(=C2SC3=C(SC(=C4SCCS4)S3)S2)S1 is > 100 µM (inactive)

Log: Malme-3M, molecule CC(N)(/C=C/c1ccccc1)C(=O)O (stereo not given) , GI50 = > 100 µM (inactive)

Test item CC(C)[Si](OC1=CCCCCC12C(=O)N(C)c1ccccc12)(C(C)C)C(C)C (stereo not given) ; Malme-3M; reported GI50 was 20.2 µM (inactive)

Kindly note: Malme-3M, O=c1cccccc1NCCCCCCNc1cccccc1=O , GI50 value reported: > 100 µM (inactive)

The observed GI50 for COc1ccc(-c2cc(=O)c3c(O)c(OC)c(OC)c(OC)c3o2)cc1OC when tested with Malme-3M stands at > 100 µM (inactive)

The measured GI50 that CC(C)(C)OC(=O)NCCc1ccc(N)cc1 showed for Malme-3M is > 100 µM (inactive)

The reported Malme-3M GI50 of N#Cc1ccc(C(=O)/C=C/c2ccc(O)c(O)c2)cc1 is 15.7 µM (inactive)

* * *

Field: GI50. Provide a value for each of the molecules that follow.
system: UACC-257; test: NCI tumour cell line growth inhibition, 48 h
Calls of active or inactive are those of the source. Cut-off read from the data, not from the text of the source: active = GI50 up to about 1.1 µM and inactive = higher.

So, CN(/N=C/c1cccc2cccnc12)c1ccc(Cl)cc1[N+](=O)[O-] ? Its GI50 was > 100 µM (inactive)

Lab note: measured GI50 of CCCNC(=O)c1cc(NC(=O)c2cc(NC(=O)CCS(=O)(=O)OC)cn2C)cn1C was 24 µM (inactive)

// sample CCN(CC)CCC(=O)O[C@H]1CC[C@H](CC(C)[C@H]2CC(=O)C(C)C=C(C)[C@H](OC(=O)CCN(CC)CC)C(OC)C(=O)[C@@H](C)CC(C)/C=C/C=C/C=C(C)C(OC)CC3CC[C@H](C)[C@](O)(O3)C(=O)C(=O)N3CCCCC3C(=O)O2)CC1OC (stereo partly specified) , its GI50 was 1.32 µM (inactive)

Per the records, this molecule ( COC1=CC(=O)c2c(O)ccc(O)c2C1=O ) has GI50 equal to 1.52 µM (inactive)

response.value for CC(=O)OC(Cc1c(O)c2c(C)cccc2oc1=O)C(C)(C)O (stereo unspecified) (field: GI50) = > 100 µM (inactive)

In plain terms, CSC1=C(SC)SC(=C2SC3=C(SC(=C4SCCS4)S3)S2)S1 has a documented GI50 of > 100 µM (inactive)

molecule O=NN1CCCS1(=O)=O , GI50 observed: > 100 µM (inactive)

Input O=C(Cc1ccccc1)NN1C(=O)C(Cl)C1c1ccc(Cl)cc1 (stereo unspecified) . Output GI50: 86.3 µM (inactive)

Entry COc1cc2ccc(C(=O)NCCCNC(=O)c3ccc4cc(OC)c(OC)cc4c3)cc2cc1OC ; GI50 = > 100 µM (inactive)

The molecule identified as O=C(c1ccc(Cl)cc1)C1OC12C(=O)Nc1c(Cl)cc(Cl)cc12 (stereo unspecified) registered its GI50 at 26.9 µM (inactive)

The reported GI50 of the molecule COc1ccc(-c2cc(=O)c3c(O)c(OC)c(OC)c(OC)c3o2)cc1OC [5-DEMETHYLNOBILETIN] was > 100 µM (inactive)

* * *

test system: SN12C; experiment: NCI tumour cell line growth inhibition, 48 h
Activity calls are given as the source filed them. Rule as the data show it: active = GI50 up to about 1.1 µM and inactive = higher.
Choose one outcome from this list and give only that: active, inactive

IN: Hi, sorry to bother you, what did the test record for CCOC(=O)c1cc2cc3c4c(c2oc1=O)CCCN4CCC3 ?
OUT: inactive

IN: Please indicate how the test categorized Cc1c(-c2ccccc2)c(C#N)c2nnc(C(N)=O)c(N)n12 .
OUT: inactive

IN: Identify the outcome logged in this assay for the compound shown: C/C=C1/CC(C)C(C)(O)C(=O)OCC2C(O)CN3CCC(OC1=O)C23 (stereo not given)
OUT: inactive

IN: Kindly provide the recorded test outcome for the following compound: C/C1=C/C[C@@H](/C(C)=C/c2csc(C)n2)OC(=O)C[C@H](O)C(C)(C)C(=O)[C@H](C)[C@@H](O)[C@@H](C)CCC1
OUT: active

IN: Status in this test for CC(=O)OCCOCNC(=S)N/N=C(\C)c1cnc2ccccc2n1 ?
OUT: inactive

IN: Check the results log: what was the call for COC(=O)[C@H](Cc1ccccc1)NC(=O)/C(=C/C(C)C)NC(=O)[C@H](CCSC)NC=O ?
OUT: inactive

IN: Called result for COC(=O)/C=C1\CCC2[C@@H](C(=O)CC3[C@]2(C)CCC[C@@]3(C)C(=O)OC)C1C (stereo not given in full)
OUT: inactive

IN: Called result for S=C(N/N=C/c1ccccc1)NC12CC3CC(CC(C3)C1)C2
OUT: inactive

IN: Called result for NCC(=O)N1CCN(c2nc(N3CCCC3)c3nc(Cl)c(NCc4ccccc4)nc3n2)CC1
OUT: inactive

IN: Recorded call for NS(=O)(=O)c1ccc(/C=C/c2cccc(O)c2)cc1 ?
OUT: inactive

IN: # lookup: test call for CCCCCC1C2C(=O)NC(=O)C1C(=O)NC2=O (stereo not given)
OUT: inactive

IN: State the result this test recorded for CC(=O)N1C(C(=O)NN2CCOCC2)CSC1c1ccccc1 (stereo not given) .
OUT: inactive

IN: Assay outcome for CC#Cc1cc2c(cc1O)CC[C@@H]1[C@@H]2CC[C@]2(C)[C@@H](O)CC[C@@H]12 : what was it?
OUT: inactive

IN: // outcome(item) with item = CCCn1c(=O)c2ccccc2[n+]2c(-c3ccc([N+](=O)[O-])cc3)csc12
OUT: inactive

IN: Outcome? Cc1cc2[nH]c(Cl)c(/C=C3\C(=O)Nc4ccccc43)c2cc1O
OUT: inactive

IN: Field: outcome | Entry: COc1c(-c2nc3ccc(N4CCN(C)CC4)nc3[nH]2)cc(OC)c2c1nc(CO)n2C
OUT: inactive

IN: Hi, do you know how O=C(O)c1c2c(cc3c1CC(Cc1ccccc1)C3=O)CCC2 (stereo not given) came out in this test?
OUT: inactive

IN: For C/C(=N/NC(N)=S)C(CN1CCOCC1)C(C1=C(O)c2ccccc2OC1)c1ccccc1 (stereo not given) , which call appears in the assay record?
OUT: inactive

IN: # outcome recorded in this test, key = C=C(C)COC1CCCCO1 (stereo not given)
OUT: inactive

IN: Returns: the outcome recorded for COC(=O)C1=C(OC(=O)/C(=C/c2ccccc2)c2ccc(Cl)cc2Cl)C(C(=O)OC)[C@@]2(O)[C@@H](C(=O)OC)[C@H](C)C[C@@H]1[C@@H]2C(=O)OC (stereo not given in full) in this assay.
OUT: inactive

FYI, the data here is from ChEMBL document CHEMBL1201862.
